System: NCI-H226;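 also: cell viability read-out used to gauge growth inhibition of the cells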
test_summary: cells
Format: functional, cell-based
measurement_context: Homo sapiens
Description: SANGER: Inhibition of human NCI-H226 cell growth in a cell viability assay.
reported_metric: IC50

{"structure": "C/C=C(/C)C(=O)O[C@H]1C(C)=C2[C@H]([C@@H]1OC(=O)CCCCCCC)[C@@](C)(OC(C)=O)C[C@H](OC(=O)CCC)[C@@]1(O)[C@H]2OC(=O)[C@@]1(C)O", "reported_metric": "IC50", "result": "2.41 nM"}
{"structure": "CC[C@@]1(O)C(=O)OCc2c1cc1n(c2=O)Cc2cc3ccccc3nc2-1", "reported_metric": "IC50", "result": "22.5 nM"}
{"structure": "Cc1[nH]c(/C=C2\\C(=O)Nc3ccc(S(=O)(=O)Cc4c(Cl)cccc4Cl)cc32)c(C)c1C(=O)N1CCC[C@@H]1CN1CCCC1", "reported_metric": "IC50", "result": "> 2000 nM"}
{"structure": "O=c1cc(N2CCOCC2)oc2c(-c3cccc4c3sc3ccccc34)cccc12", "reported_metric": "IC50", "result": "> 2000 nM"}
{"structure": "C[C@]1(c2nc3c(C(N)=O)cccc3[nH]2)CCCN1", "reported_metric": "IC50", "result": "> 5000 nM"}
{"structure": "Cc1ccc(NC(=O)c2cccc(C(C)(C)C#N)c2)cc1Nc1ccc2ncn(C)c(=O)c2c1", "reported_metric": "IC50", "result": "> 4000 nM"}
{"structure": "Cc1nc(Nc2ncc(C(=O)Nc3c(C)cccc3Cl)s2)cc(N2CCN(CCO)CC2)n1", "reported_metric": "IC50", "result": "> 1280 nM"}
